Measured Population Healthy Nuclei (%) by item
system: Fibroblast; assay: Multiplex assay against human fibroblast; assay type: toxicity, cell-based; settings: 12 h, 10 µM, compound concentration 10 uM, replicate 2
State just the number; it will be interpreted in %.

Some entries whose results are on file:
CN1CCCC(n2nc(Cc3ccc(Cl)cc3)c3ccccc3c2=O)CC1.Cl (centres undefined) [AZELASTINE HYDROCHLORIDE]; 70
Cl.N#Cc1ccc2[nH]cc(CCCCN3CCN(c4ccc5oc(C(N)=O)cc5c4)CC3)c2c1 [VILAZODONE HYDROCHLORIDE]; 14
CC(C)(O)CNc1ncc(-c2ccnc(Nc3ccnc(Cl)c3)n2)c(CC2CC2)n1; 64

Kindly consider the entry below.
What the record says about c1cn2cc(-c3ccc4cn[nH]c4c3)nc(Nc3ccc(N4CCOCC4)cc3)c2n1 [ENTOSPLETINIB] : Population Healthy Nuclei (%) is 2

---

Measured Total Cell Count by item
tested on: U2OS; experiment: Multiplex assay against U2OS; assay type: toxicity, cell-based; settings: human, 12 h, 10 µM, compound concentration 10 uM, replicate 2

Some entries whose results are on file:
C[C@@H](NCCCc1cccc(C(F)(F)F)c1)c1cccc2ccccc12.Cl [CINACALCET HYDROCHLORIDE]; 68
Cc1nc(Nc2n[nH]c3c2CN(C(=O)N[C@H](CN(C)C)c2ccccc2)C3(C)C)c2sccc2n1 [PF-03758309]; 112
Cc1[nH]c(/C=C2\C(=O)Nc3ccc(S(=O)(=O)N(C)c4cccc(Cl)c4)cc32)c(C)c1C(=O)N1CCN(C)CC1; 70

Kindly consider the entry below.
What the record says about `CN(C)C(=O)/C(C#N)=C/c1ccc(-c2nc3cnc4[nH]ccc4c3n2C2CCCCC2)o1` : Total Cell Count is 91

---

system: U2OS; assay: Incucyte cell viability with U2OS; assay type: toxicity, cell-based; conditions: human, 18 h, 10 µM, compound concentration 10 uM, replicate number 1, timepoint 18 hours; further: filed as whole numbers so only -1 and 0 and 1 occur
observable: Growth Rate
# answer = number (no unit)

Some entries whose results are on file:
COc1ccc(CNC(=O)c2cc(-c3cncc(Cl)c3)cnc2-c2ccccn2)nc1OC; 1
N#Cc1c(O)nc(SCc2cccc(F)c2F)nc1C1CC1; 1
Cc1c(-c2ccc(O)cc2)n(Cc2ccc(OCCN3CCCCCC3)cc2)c2ccc(O)cc12; 0
Br.Br.N=C(N)SCCc1c[nH]cn1; 0
Cc1[nH]c(/C=C2\C(=O)Nc3ccc(S(=O)(=O)N(C)c4cccc(Cl)c4)cc32)c(C)c1C(=O)N1CCN(C)CC1; 0
COc1cccc(OC)c1-c1cc(C(=O)NC2(C(=O)O)C3CC4CC(C3)CC2C4)nn1-c1ccc(C(=O)N(C)CCCN(C)C)cc1C(C)C (stereo not drawn); 0
CNCCN1CCC(OCc2ccccc2)CC1; 1
Cc1nc(-c2cn3c(n2)-c2ccc(-c4cnn(C(C)(C)C(N)=O)c4)cc2OCC3)n(C(C)C)n1; 0

What the record says about `Cn1cc(C2=C(c3cn(C4CCN(Cc5ccccn5)CC4)c4ccccc34)C(=O)NC2=O)c2ccccc21` : Growth Rate is 0

What the record says about CC(=O)OCC(=O)[C@@]1(O)CC[C@H]2[C@@H]3CCC4=CC(=O)CC[C@]4(C)[C@@]3(F)[C@@H](O)C[C@@]21C [FLUDROCORTISONE ACETATE] : Growth Rate is 1

What the record says about `CCOc1cc(N2CCC(O)CC2)ccc1Nc1ncc2c(n1)N(C)c1ccccc1C(=O)N2C` : Growth Rate is 1

What the record says about `COc1cc2nccc(Oc3ccc(NC(=O)Nc4cc(C)on4)c(Cl)c3)c2cc1OC.O` : Growth Rate is 0

What the record says about `COc1cc(-c2cn([C@H]3CCc4c(F)cccc4N(CC(F)(F)F)C3=O)nn2)ccc1-n1cnc(C)c1` : Growth Rate is 0

Hello, the source for this data is ChEMBL document CHEMBL4689842, in case you need it.
